Sequence of the target: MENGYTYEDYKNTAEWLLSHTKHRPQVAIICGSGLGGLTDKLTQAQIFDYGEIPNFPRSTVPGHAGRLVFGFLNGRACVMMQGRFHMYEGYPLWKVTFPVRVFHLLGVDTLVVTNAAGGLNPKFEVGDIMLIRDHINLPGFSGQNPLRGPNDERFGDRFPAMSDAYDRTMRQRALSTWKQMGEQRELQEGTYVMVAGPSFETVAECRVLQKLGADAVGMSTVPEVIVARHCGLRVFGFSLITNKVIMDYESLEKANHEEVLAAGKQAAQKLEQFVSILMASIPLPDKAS
metric: Ki (µM)
Numeric only. Scale: µM

Observe how each entry below is paired with its result.
O=c1[nH]cnc2c(O)ccc(O)c12 [Substituted Quinazolin-4(3H)-one, 11]	142
Cc1cc(O)c2nc[nH]c(=O)c2c1 [Substituted Quinazolin-4(3H)-one, 12]	618

Need Ki, item Nc1cccc2nc[nH]c(=O)c12 [Substituted Quinazolin-4(3H)-one, 9] 337
